Source listed as patent US20260373266A1.

targetOrSystem: DCAF1 WD40 domain (residues 1077-1390) (Homo sapiens)
Construct: DCAF1 WD40 domain (residues 1077-1390)
measurementDescription: DCAF1 binding assay by SPR (Biacore 8K+), DCAF1-3 KD
conditionSummary: 25 °C, read-out: DCAF1-3 SPR (KD)
pKd: −log10 of the molar value.
measuredParameter: pKd

Sample answers from the record:
- COCCOCC[C@H]1CCCN(c2ccnc(N3CC[C@@H]4[C@H]3CCCN4c3cccc(F)c3)c2)C1: 4.00 to 5.00
- COCCOCCc1[nH]cc(C(=O)N[C@@H](CC(N)=O)c2cccc(Cl)c2)c1-c1ccccc1F: > 5.00
- COc1ncc2cc[nH]c2c1N1CCC[C@@H](Nc2cc(N3CCOCC3)ccn2)C1: 4.00 to 5.00

Can you look up the measured pKd of Fc1cccc(N2CCC[C@@H](Nc3cc(N4C[C@H]5CCC4CO5)ncn3)C2)c1 for me?
< 3.70

---

targetOrSystem: DCAF1 WD40 domain (residues 1077-1390) (Homo sapiens)
Construct: DCAF1 WD40 domain (residues 1077-1390)
measurementDescription: DCAF1 binding assay by SPR (Biacore 8K+), DCAF1-3 KD
conditionSummary: 25 °C, read-out: DCAF1-3 SPR (KD)
pKd: −log10 of the molar value.
Quick reference for pKd among some compounds

• O[C@@H]1CCCN(c2ccnc(N3CC[C@@H]4[C@H]3CCCN4c3cccc(F)c3)c2)C1 = > 5.00
• NC(=O)C[C@H](NC(=O)c1c[nH]nc1-c1cc(C(=O)O)ccc1F)c1cccc(Cl)c1 [I-269] = < 3.70
• COC(=O)c1ccc(F)c(-c2n[nH]cc2C(=O)N[C@@H](CC(N)=O)c2cccc(Cl)c2)c1 = < 3.70

Can you look up the measured pKd of CNC(=O)C[C@H](NC(=O)c1c[nH]c(C(=O)COCCOCCOCCOCCOCCNC(=O)C[C@@H]2N=C(c3ccc(Cl)cc3)c3c(sc(C)c3C)-n3c(C)nnc32)c1-c1c(F)ccc(F)c1C)c1cccc(Cl)c1 for me?
> 5.00

Can you look up the measured pKd of CC(F)(c1cc(N2CCOCC2)ccn1)C1CCCN(c2cccc(F)c2)C1 (stereo not shown) for me?
< 3.70

Can you look up the measured pKd of Cc1c(F)ccc(F)c1-c1c(C(=O)NC(CC(N)=O)c2cccc(Cl)c2)cn(C)c1C(=O)COCCOCCOCCOCCOCCN (stereo not shown) for me?
> 5.00

Can you look up the measured pKd of Cc1c(F)ccc(F)c1-c1c(C(=O)N[C@@H](CC(N)=O)c2cccc(Cl)c2)c[nH]c1/C(=N/OC(C)C)c1ccccc1 for me?
> 5.00

---

targetOrSystem: DCAF1 WD40 domain (residues 1077-1390) (Homo sapiens)
Construct: DCAF1 WD40 domain (residues 1077-1390)
measurementDescription: DCAF1 binding assay by SPR (Biacore 8K+), DCAF1-3 KD
conditionSummary: 25 °C, read-out: DCAF1-3 SPR (KD)
Quick reference for Kd among some compounds

Sample answers from the record:
* N#Cc1ccc([C@H](CC(N)=O)NC(=O)c2c[nH]nc2-c2ccccc2F)cc1 | < 10 µM
* Cc1c(F)ccc(F)c1-c1c(C(=O)N[C@@H](CC(N)=O)c2cccc(Cl)c2)c[nH]c1C(=O)c1ccc(CCCOCCOCCOCCOCCOCCN)cc1 | < 10 µM
* Fc1cccc(N2CC[C@@H]3CN(c4cc(N5CCCCC5)ccn4)C[C@@H]32)c1 | 10 to 100 µM

Can you look up the measured Kd of CCOC(=O)Cc1ccc(N2CCC[C@@H](Nc3cc(N4CCOCC4)ccn3)C2)cn1 for me?
> 200 µM

Can you look up the measured Kd of C=CC(=O)NCCCN1CCN(c2ccnc(N[C@@H]3CCCN(c4cccc(F)c4)C3)c2)CC1 for me?
100 to 200 µM

Can you look up the measured Kd of NC(=O)C[C@H](NC(=O)c1cn[nH]c1-c1ccc(C(N)=O)cc1)c1cccc(Cl)c1 for me?
10 to 100 µM

---

targetOrSystem: DCAF1 WD40 domain (residues 1077-1390) (Homo sapiens)
Construct: DCAF1 WD40 domain (residues 1077-1390)
measurementDescription: DCAF1 binding assay by SPR (Biacore 8K+), DCAF1-3 KD
conditionSummary: 25 °C, read-out: DCAF1-3 SPR (KD)
pKd: −log10 of the molar value.
Quick reference for pKd among some compounds

Sample answers from the record:
* Cc1sc2c(c1C)C(c1ccc(Cl)cc1)=N[C@@H](CC(=O)NCCOCCOCCOCCOCCOCCC1CCN(c3ccnc(N4CC[C@@H]5[C@H]4CCCN5c4cccc(F)c4)c3)CC1)c1nnc(C)n1-2 | > 5.00
* NC(=O)CC1(NC(=O)c2cn[nH]c2-c2ccccc2F)CCc2ccc(Cl)cc21 (stereo not shown) | 4.00 to 5.00
* Clc1cccc(N2CCC[C@@H]3[C@H]2CCN3c2cc(N3CC4CC(C4)C3)ccn2)c1 | < 3.70

Checklist item: pKd tested on DCAF1 WD40 domain (residues 1077-1390) (Homo sapiens), entry Cc1nn(CC(F)(F)F)cc1N1CCC[C@@H](Nc2cc(N3CCOCC3)ccn2)C1 , value?
< 3.70

Checklist item: pKd tested on DCAF1 WD40 domain (residues 1077-1390) (Homo sapiens), entry CC(C)c1cccc(-c2[nH]ncc2C(=O)N[C@@H](CC(N)=O)c2cccc(Cl)c2)c1 , value?
4.00 to 5.00

Checklist item: pKd tested on DCAF1 WD40 domain (residues 1077-1390) (Homo sapiens), entry NC(=O)C[C@H](NC(=O)c1cn[nH]c1-c1ccccc1C(N)=O)c1cccc(Cl)c1 , value?
4.00 to 5.00

Checklist item: pKd tested on DCAF1 WD40 domain (residues 1077-1390) (Homo sapiens), entry CCCCCCC[C@@H]1CCCN(c2ccnc(N3CC[C@H]4[C@@H]3CCCN4c3cccc(F)c3)c2)C1 , value?
4.00 to 5.00

---

targetOrSystem: DCAF1 WD40 domain (residues 1077-1390) (Homo sapiens)
Construct: DCAF1 WD40 domain (residues 1077-1390)
measurementDescription: DCAF1 binding assay by SPR (Biacore 8K+), DCAF1-3 KD
conditionSummary: 25 °C, read-out: DCAF1-3 SPR (KD)
Quick reference for Kd among some molecules

- c1cc(N2CCCCC2)cc(N[C@H]2CCC[C@H](C3CCCCC3)C2)n1: > 200 µM

Next:
Can you look up the measured Kd of Cc1cc(N2CCC[C@@H](Nc3cc(N4CCOCC4)ccn3)C2)cnc1OC(C)C for me?
> 200 µM

---

targetOrSystem: DCAF1 WD40 domain (residues 1077-1390) (Homo sapiens, UniProt Q9Y4B6)
Construct: DCAF1 WD40 domain (residues 1077-1390)
Sequence (Q9Y4B6 1077-1390): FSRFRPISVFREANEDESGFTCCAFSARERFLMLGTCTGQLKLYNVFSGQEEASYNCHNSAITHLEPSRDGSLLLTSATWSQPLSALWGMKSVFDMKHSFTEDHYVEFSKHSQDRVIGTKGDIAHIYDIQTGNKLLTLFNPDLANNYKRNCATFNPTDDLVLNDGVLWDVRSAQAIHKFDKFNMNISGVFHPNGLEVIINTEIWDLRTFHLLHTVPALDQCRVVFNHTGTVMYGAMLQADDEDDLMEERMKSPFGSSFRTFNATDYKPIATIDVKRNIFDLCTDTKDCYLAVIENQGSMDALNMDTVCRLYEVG
measurementDescription: DCAF1 binding assay by SPR (Biacore 8K+), DCAF1-3 KD
conditionSummary: 25 °C, read-out: DCAF1-3 SPR (KD)
Quick reference for Kd among some molecules

* c1ccc2c(N3CCC[C@@H](Nc4cc(N5CCOCC5)ncn4)C3)nccc2c1 | > 200 µM
* NC(=O)C[C@H](NC(=O)c1cn[nH]c1-c1ccncc1)c1cccc(Cl)c1 | 10 to 100 µM
* Fc1cccc(N2CCC[C@@H](Nc3cc(N4CCOCC4)ccn3)C2F)c1 (some centres unmarked) | > 200 µM
* Fc1cccc(N2CCC[C@@H](N(CCc3ccccc3)c3nccc(N4CCOCC4)n3)C2)c1 | > 200 µM
* Fc1cccc(N2CCC[C@@H](Nc3cc([C@H]4CCCCO4)ccn3)C2)c1 | > 200 µM
* Fc1cccc(N2C3CC[C@H]2CC[C@H]3Nc2cc(N3CCOCC3)ccn2)c1 (stereo in doubt) | > 200 µM

Checklist item: Kd tested on DCAF1 WD40 domain (residues 1077-1390) (Homo sapiens, UniProt Q9Y4B6), entry c1ccc2cc(N3CCC[C@@H](Nc4cc(N5CCOCC5)ncn4)C3)ccc2c1 , value?
> 200 µM

Checklist item: Kd tested on DCAF1 WD40 domain (residues 1077-1390) (Homo sapiens, UniProt Q9Y4B6), entry CC(=O)Nc1cccnc1N1CCC[C@@H](Nc2cc(N3CCOCC3)ccn2)C1 , value?
> 200 µM

Checklist item: Kd tested on DCAF1 WD40 domain (residues 1077-1390) (Homo sapiens, UniProt Q9Y4B6), entry NC(=O)C[C@@]1(NC(=O)c2cn[nH]c2-c2ccccc2F)CCc2ccc(Cl)cc21 , value?
> 200 µM

Checklist item: Kd tested on DCAF1 WD40 domain (residues 1077-1390) (Homo sapiens, UniProt Q9Y4B6), entry NC(=O)c1cccc(N2CCC[C@@H](Nc3cc(N4CCOCC4)ccn3)C2)c1 , value?
> 200 µM

---

targetOrSystem: DCAF1 WD40 domain (residues 1077-1390) (Homo sapiens, UniProt Q9Y4B6)
Construct: DCAF1 WD40 domain (residues 1077-1390)
measurementDescription: DCAF1 binding assay by SPR (Biacore 8K+), DCAF1-3 KD
conditionSummary: 25 °C, read-out: DCAF1-3 SPR (KD)
Quick reference for Kd among some molecules

Checklist item: Kd tested on DCAF1 WD40 domain (residues 1077-1390) (Homo sapiens, UniProt Q9Y4B6), entry Cc1c(F)ccc(F)c1-c1[nH]ncc1C(=O)N[C@@H](CC(=O)N1CC(O)C1)c1cccc(Cl)c1 , value?
< 10 µM

Checklist item: Kd tested on DCAF1 WD40 domain (residues 1077-1390) (Homo sapiens, UniProt Q9Y4B6), entry Fc1cccc(N2CCC[C@@H](N3CCc4c(N5CC6CC(C6)C5)ccnc43)C2)c1 , value?
< 10 µM

Checklist item: Kd tested on DCAF1 WD40 domain (residues 1077-1390) (Homo sapiens, UniProt Q9Y4B6), entry Fc1cccc(N2CCC[C@@H](Nc3cc(N4CC5CCC(CC5)C4)ccn3)C2)c1 , value?
< 10 µM

Checklist item: Kd tested on DCAF1 WD40 domain (residues 1077-1390) (Homo sapiens, UniProt Q9Y4B6), entry Nc1nc(N[C@@H]2CCCN(c3cccc(F)c3)C2)cc(N2CCOCC2)n1 , value?
> 200 µM

Checklist item: Kd tested on DCAF1 WD40 domain (residues 1077-1390) (Homo sapiens, UniProt Q9Y4B6), entry N#Cc1ccc(N2CCOCC2)cc1N[C@@H]1CCCN(c2cccc(F)c2)C1 , value?
10 to 100 µM
